Target: CST (CTC1-STN1-TEN1) (human, UniProt Q2NKJ3;Q9H668;Q86WV5 1-1217;1-368;1-123)
Sequence (Q2NKJ3 whole entry, chain 1 of 3): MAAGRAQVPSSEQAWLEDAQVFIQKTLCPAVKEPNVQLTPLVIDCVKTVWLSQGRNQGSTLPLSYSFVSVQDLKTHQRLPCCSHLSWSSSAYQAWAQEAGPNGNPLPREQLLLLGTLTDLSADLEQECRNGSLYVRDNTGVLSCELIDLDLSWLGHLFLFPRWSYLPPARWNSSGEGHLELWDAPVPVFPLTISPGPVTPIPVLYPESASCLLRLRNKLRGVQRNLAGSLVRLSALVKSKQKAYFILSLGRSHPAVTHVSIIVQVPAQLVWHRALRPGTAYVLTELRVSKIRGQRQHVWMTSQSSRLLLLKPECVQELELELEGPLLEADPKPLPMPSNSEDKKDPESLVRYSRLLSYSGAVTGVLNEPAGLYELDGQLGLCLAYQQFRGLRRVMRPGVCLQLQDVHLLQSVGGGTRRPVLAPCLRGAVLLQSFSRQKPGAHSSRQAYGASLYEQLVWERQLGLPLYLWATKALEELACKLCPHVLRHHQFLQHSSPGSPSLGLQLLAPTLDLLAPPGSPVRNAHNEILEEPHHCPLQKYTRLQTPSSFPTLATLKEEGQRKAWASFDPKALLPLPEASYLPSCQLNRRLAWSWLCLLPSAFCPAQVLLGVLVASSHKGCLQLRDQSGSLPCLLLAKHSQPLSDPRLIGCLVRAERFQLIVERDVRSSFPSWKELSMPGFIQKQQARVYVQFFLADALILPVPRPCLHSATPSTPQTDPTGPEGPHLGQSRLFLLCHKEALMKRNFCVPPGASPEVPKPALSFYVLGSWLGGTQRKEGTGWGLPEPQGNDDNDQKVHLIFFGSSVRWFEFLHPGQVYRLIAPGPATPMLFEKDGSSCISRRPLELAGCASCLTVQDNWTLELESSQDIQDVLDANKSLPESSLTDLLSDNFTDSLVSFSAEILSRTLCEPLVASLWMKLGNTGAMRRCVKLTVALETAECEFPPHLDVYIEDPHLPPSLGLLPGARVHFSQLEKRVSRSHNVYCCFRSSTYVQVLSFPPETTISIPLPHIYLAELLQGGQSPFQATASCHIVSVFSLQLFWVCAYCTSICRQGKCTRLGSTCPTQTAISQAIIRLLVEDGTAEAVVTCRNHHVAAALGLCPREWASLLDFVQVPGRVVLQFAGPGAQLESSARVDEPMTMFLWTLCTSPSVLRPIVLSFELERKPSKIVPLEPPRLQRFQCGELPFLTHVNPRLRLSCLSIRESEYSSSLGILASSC
Sequence (Q9H668 whole entry, chain 2 of 3): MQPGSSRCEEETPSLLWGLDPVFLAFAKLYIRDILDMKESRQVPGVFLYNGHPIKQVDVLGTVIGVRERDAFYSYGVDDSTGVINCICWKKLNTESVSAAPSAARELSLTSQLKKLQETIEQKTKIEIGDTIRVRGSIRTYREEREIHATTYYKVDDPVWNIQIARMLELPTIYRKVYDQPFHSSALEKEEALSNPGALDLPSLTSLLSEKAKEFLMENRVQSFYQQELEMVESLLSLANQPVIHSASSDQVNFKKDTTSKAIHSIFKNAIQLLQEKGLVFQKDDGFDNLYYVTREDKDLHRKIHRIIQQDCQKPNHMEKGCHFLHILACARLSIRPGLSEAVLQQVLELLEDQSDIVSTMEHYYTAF
Sequence (Q86WV5 whole entry, chain 3 of 3): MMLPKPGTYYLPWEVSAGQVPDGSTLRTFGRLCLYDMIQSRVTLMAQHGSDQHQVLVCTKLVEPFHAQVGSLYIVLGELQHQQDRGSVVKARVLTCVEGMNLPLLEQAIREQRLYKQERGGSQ
Experiment: fluorescence anisotropy; 200 mM NaCl; FA: 200 mM NaCl, KCl or LiCl, 20 mM HEPES pH 7.4, 1 mM DTT, 22-25 C, 375 or 750 pM oligo, Kd,app +/- SEM; EMSA: 20 mM HEPES pH 7.4, 200 mM KCl, 1 nM 32P oligo
Conditions: protein: recombinant; tags: 2xFLAG N-term on CTC1; 6xHis N-term on STN1 and TEN1; copies: 1;1;1; label: 5' fluorescein; intramolecular G4 at 3' end, 5' tail; linear in LiCl
Property: Kd (nM)
Respond with the bare value in nM.

Entry AGTGTGAGTGTGAGTGTTAGGGTTAGGGTTAGGGTTAGGG (structured_DNA) [Tel40 3' G4] , Kd reported as 2.3

Just for reference, paper PMC10250233 is where these values come from.
